Assign melting point to each entry below.

Fill in reported melting point for this entry: CCCc1c(-c2ccc(C(=O)OC)cc2)oc2cc(S(=O)(=O)Cl)ccc2c1=O
128 °C

Tell us which melting point value is on record for CC(C)NC1=NS(=O)(=O)c2cc(Cl)cc([N+](=O)[O-])c2N1
266 to 267 °C

Please report melting point for the following compound: CC(C)(C)OC(=O)NCCc1ccc(Oc2c(Cl)cnc(C(F)(F)F)c2Cl)cc1
137 to 140 °C

Specify reported melting point for the compound shown: COc1ccc(C2Sc3cc(Cl)ccc3NC(=O)C2O)cc1 (stereo unspecified)
237 to 241 °C

Retrieve melting point measured for CSc1nc(I)ncc1Br and print it.
72 to 76 °C

Using the record for CC(=O)NCCc1ccc(CC(=O)O)cc1 , state its measured melting point.
117 to 118 °C

Annotate the compound O=C(O)CCCCCCC1C(=O)CC(=O)C1=O (stereo unspecified) with its measured melting point.
102 to 104 °C

Identify the reported melting point for the following entry. CCCn1c(=O)c2c(nc(C=Cc3cc(OC)c(OC)c(OC)c3S(=O)(=O)O)n2C)n(CCC)c1=O
248 to 250 °C

Look up and state reported melting point for COc1ccc(C2CNC(=O)N2C)cc1NC1CC2CCC1C2 (stereo unspecified)
171 to 174 °C

Kindly indicate its recorded melting point. Item: CC(C)S(=O)(=O)c1cc(OCc2ccccc2)c2[nH]nc(N)c2c1
179 to 180 °C

Quote melting point reported for Cc1cccc(NC(=O)NCC(=O)N(CC(=O)N2CCCC2)c2ccccc2)c1 please.
206 °C

Input Cc1ncc(-c2ccc([C@H](C)N3CC[C@](CC(C)(C)O)(c4ccccc4)OC3=O)cc2)cn1 , output reported melting point.
112 to 115 °C

Give recorded melting point. S=C(Cc1ccncc1)N1CCOCC1
162 to 163 °C

Give recorded melting point. NS(=O)(=O)c1ccccc1-n1cccn1
167 to 170 °C

Read off the recorded melting point for CC(=O)OC1CSC(Oc2cccnc2C(C)=O)C(OC(C)=O)C1OC(C)=O (stereo unspecified)
168 °C

Retrieve melting point measured for COCCOC(=O)CC[C@@H](NC(=O)[C@@H](NC(=O)OC(C)(C)C)C(C)C)C(N)=O and print it.
107 to 108 °C

Give a short answer stating reported melting point for O=c1[nH]c2ccc(OC3CCCC3)cc2n1C1CCCCC1 .
242 °C

Annotate the compound CCc1cccc2c3c([nH]c12)C(CC)(CC(=O)OC)OCC3=NO (stereo unspecified) with its measured melting point.
188 to 190 °C

Note melting point for the compound shown: CCOC(COc1cccc2c1OCCO2)OCC
73.1 °C

Return melting point for the following compound: CC(NC(=O)C(O)c1cc(F)cc(F)c1)C(=O)Nc1ccc2c(c1)NC(=O)Cc1cccn1-2 (stereo unspecified)
239 to 240 °C

Give a short answer stating reported melting point for CCOC(=O)Cc1sc(SCc2cc(O)nc(O)n2)nc1C .
203 to 204 °C

* * *

Record form. Attribute: melting point. Fill in for each entry.

Fill in reported melting point for this entry: CCCCCCCCCCCCOc1ccc(C(=O)c2ccc(Cl)cc2)c(O)c1
61 to 63 °C

Please list melting point recorded for the compound O=Cc1cc(=O)c(OCc2ccccc2)c(C(=O)c2ccc(Cc3ccc(F)cc3)o2)o1
69 to 72 °C

Please indicate melting point recorded for Cc1ccc(N2C(=O)C(O)=C(C(=O)c3ccc(OC(F)(F)F)cc3)C2c2ccc(Cn3ncnn3)cc2)nn1 (stereo not given)
258 °C

Identify measured melting point corresponding to CCCCc1nc(Cc2ccc(-c3ccccc3C(=O)OC)cc2)c2ccccc2n1
76 °C

State its melting point for this compound: NS(=O)(=O)c1ccc(N2CN(c3ccccc3)CC2=O)c(Cl)c1
204 °C

Annotate the compound COC(=O)CCCCc1cccnc1CNC=O with its measured melting point.
43 to 45 °C

Provide melting point value for the following compound: CC(C)(C)c1ccc(Sc2ccsc2CN(O)C(N)=O)cc1
144 to 146 °C

Supply reported melting point belonging to this compound: O[C@@H](c1n[nH]cc1-c1ccccc1)[C@H](CCN1CCC(O)(c2ccccc2)CC1)c1ccc(Cl)c(Cl)c1 (racemic)
122 to 124 °C

Complete the entry with melting point for CN(C)C1(Cc2ccccc2)CCC(O)(c2cc3ccccc3s2)CC1 (stereo not given)
128 to 131 °C

Read the entry CCOC(=O)c1c(C(F)(F)F)nc(C(F)(F)Cl)c(C(=O)OC)c1NN(C)C and write its reported melting point.
97 to 98 °C

Specify reported melting point for the compound shown: CCCCCCCCCCCCCCCCNc1c(Cl)cc(C(=O)O)cc1Cl
92 to 94 °C

// fetch melting point given entry CC(C)(C)OC(=O)NCC12CN(c3c(F)cc4c(=O)c(C(=O)O)cn(C5CC5)c4c3Cl)CC1CCO2 (stereo not given)
111 to 113 °C

Recall and state the measured melting point for Cc1cccc(-c2[nH]nc(N3CCN(C)CC3)c2-c2ccncc2)c1 .
262 °C

Specify reported melting point for the compound shown: COc1ccc2[nH]c(SCc3ncnc(N4CCCCC4)c3C)nc2c1
94 to 96 °C

Name the recorded melting point of the item Nc1cc(Cl)cc2c(Cl)ccnc12 in your answer.
132 to 134 °C

Report melting point, nothing else, for this compound: Cc1oncc1C(=O)N1CCC[C@H](c2nc(-c3cc4ccccc4[nH]3)no2)C1
163 to 164 °C

State, in one line, measured melting point of O=C1c2cc3nnn(Cc4ccccn4)c(=O)c3cc2OC2CCCN12 (stereo not given)
184 to 186 °C

Look up and state reported melting point for CS(=O)(=O)c1c[nH]nc1C(CCCC(=O)C1CCCCC1)CO[N+](=O)[O-] (stereo not given)
111 to 113 °C

Provide one value: measured melting point of CCN1c2ncc(Br)cc2C(=O)N(C)c2ccc(F)nc21
154 to 156 °C

Identify measured melting point corresponding to Cc1ccc(C(=O)NC2CC2)cc1-c1cc2cnc(NC3CCOCC3)nc2n(C)c1=O
239 to 241 °C

State its melting point: Cc1cc(CBr)cc(Oc2nc(Cl)nc(Cl)c2C(C)C)c1
98 to 101 °C

For the compound COC(=S)OCC(COC(=S)OC)OCn1cnc2c(=O)[nH]c(N)nc21 , report melting point.
148 to 150 °C

Identify measured melting point associated with CCCn1cc(Cc2ccc(C(=O)NS(=O)(=O)c3ccccc3C)cc2OC)c2cc(CC3CCCN(C)C3=O)ccc21 (stereo not given)
120 to 128 °C

Quote melting point reported for O=C(Nc1ccc(-n2nc(C(F)(F)F)cc2C(F)(F)F)cc1)c1cccc(Cl)c1F please.
113 to 116 °C

Kindly indicate its recorded melting point. Item: N#Cc1ccc2c(c1)c(C1CCC(=O)CC1)cn2Cc1ccccc1
115 to 126 °C

Consider the compound Cc1cc2cc(CN3CCCCC3)cnc2cc1NC(=O)c1ccc(-c2ccc(F)cc2)cc1 and give its recorded melting point.
185 to 188 °C

For the compound COc1cccc(CN2CCN(CC(=O)N3CC=C(c4ccccc4)n4ncc(C#N)c43)CC2)c1 , give its measured melting point value.
98 to 100 °C

Given the compound O=C(NN=Cc1cccc(C(F)(F)F)c1Cl)c1ccc(O)cc1 , write its reported melting point.
262 °C

Provide only the value of recorded melting point for CC1Cc2cc(N)ccc2C1=O (stereo not given)
151 to 152 °C

Supply measured melting point of N#Cc1cccc(-c2ccc(=O)n(Cc3cccc(-c4ncc(O)cn4)c3)n2)c1 in your reply.
245 to 248 °C

Retrieve melting point measured for CC(=O)NCCS(=O)C1(Cl)CC2CC(=O)N2C1C(=O)OCc1ccccc1 (stereo not given) and print it.
89 to 93 °C

Tell me measured melting point for CCCCc1nc(C(=O)CCC)c(C#N)[nH]1 please.
91 to 92 °C

Input COc1ccc(C(O)C(=S)N(C)C)cc1 (stereo not given) , output reported melting point.
101 °C

Using the record for CC(CCC(O)CO)=Nc1ncnc2c1ncn2C1OC(CO)C(O)C1O (stereo not given) , state its measured melting point.
102 to 104 °C

Answer with the recorded melting point of O=[N+]([O-])c1ccc(C=C(Cl)Cl)o1 only.
74 to 75 °C

Name the recorded melting point of the item O=C1c2cccc(O)c2NC(O)C2CCCN12 (stereo not given) in your answer.
155 to 157 °C

Retrieve melting point measured for O=C1COc2ccc(C3=C(c4ccc(Cl)cc4Cl)C(=O)OC3)cc2N1 and print it.
233 to 234 °C

Give the measured melting point for CCn1cc(-c2ccc(O)cc2)nc1SC
218 °C

Return value of melting point for input Cc1ccc(S(=O)(=O)Nc2c(CCCCCCC(=O)O)ccc3ccccc23)cc1 , no commentary.
128 to 133 °C

Return the recorded melting point value; entry: COC(=O)CC(=O)c1ncccc1Cl
113 to 116 °C

Source listed as a melting point compilation (Tetko et al.; mined from patent text by program, amines drawn as free bases though some values may be those of a salt).
